- System: LN229 cells
- Test: Amino acid starvation assay: antiproliferation assay with LN229 cells (CellTiter-Glo)
- Format: cell-based
- Condition set: Homo sapiens, LN-229, 144 h, F12K medium, six days, Table 1, read-out: Anti-proliferation LC50 (μM ± SE)
Observed property: CC50 (µM)
Form entry: value (µM) — number only.

Quick check: CC50 of Cc1ccc(S(=O)(=O)Nc2ccc(Cl)cc2)cc1C[C@H](N)C(=O)O ?
9.7

Given the molecule Cc1ccc(S(=O)(=O)Nc2cccc(Br)c2)cc1C[C@H](N)C(=O)O , what is its reported CC50?
11

Which value of CC50 has been reported for Cc1ccc(S(=O)(=O)Nc2ccc(-c3ccccc3)cc2)cc1C[C@H](N)C(=O)O in the records?
60

Entry Cc1ccc(S(=O)(=O)NC2CCCCC2)cc1C[C@H](N)C(=O)O has what CC50?
100

Any idea what its CC50 is? The molecule is Cc1ccc(NS(=O)(=O)c2cccc(-c3ccccc3)c2)cc1C[C@H](N)C(=O)O
52

Fill in the blank: the reported CC50 of Cc1ccc(NS(=O)(=O)c2ccc(C(C)(C)C)cc2)cc1C[C@H](N)C(=O)O is ____.
100

Sample N[C@@H](Cc1cccc(S(=O)(=O)Nc2ccc(Cl)cc2)c1)C(=O)O — what was its CC50?
100

Requested field: CC50. Item: Cc1ccc(S(=O)(=O)Nc2ccc(Br)cc2)cc1C[C@H](N)C(=O)O
13

Could you tell me which CC50 is on file for Cc1ccc(NS(=O)(=O)c2cccc(Br)c2)cc1C[C@H](N)C(=O)O ?
90

----------
- Target under test: LAT1 (Homo sapiens (Human), UniProt Q01650)
- Sequence (Q01650 whole entry): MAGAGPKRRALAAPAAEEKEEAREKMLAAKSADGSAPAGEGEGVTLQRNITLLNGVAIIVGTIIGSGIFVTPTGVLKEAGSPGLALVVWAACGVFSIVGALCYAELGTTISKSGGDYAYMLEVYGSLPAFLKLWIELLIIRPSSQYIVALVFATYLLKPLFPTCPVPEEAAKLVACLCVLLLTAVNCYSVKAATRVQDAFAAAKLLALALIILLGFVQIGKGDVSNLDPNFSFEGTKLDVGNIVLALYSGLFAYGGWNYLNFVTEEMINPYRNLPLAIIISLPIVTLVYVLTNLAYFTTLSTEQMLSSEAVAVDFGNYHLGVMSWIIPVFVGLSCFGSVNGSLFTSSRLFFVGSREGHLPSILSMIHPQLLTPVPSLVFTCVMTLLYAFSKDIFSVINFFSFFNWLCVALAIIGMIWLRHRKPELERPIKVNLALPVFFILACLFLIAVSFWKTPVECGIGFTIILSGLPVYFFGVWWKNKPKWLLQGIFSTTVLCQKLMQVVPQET
- Sequence (P08195 whole entry partner): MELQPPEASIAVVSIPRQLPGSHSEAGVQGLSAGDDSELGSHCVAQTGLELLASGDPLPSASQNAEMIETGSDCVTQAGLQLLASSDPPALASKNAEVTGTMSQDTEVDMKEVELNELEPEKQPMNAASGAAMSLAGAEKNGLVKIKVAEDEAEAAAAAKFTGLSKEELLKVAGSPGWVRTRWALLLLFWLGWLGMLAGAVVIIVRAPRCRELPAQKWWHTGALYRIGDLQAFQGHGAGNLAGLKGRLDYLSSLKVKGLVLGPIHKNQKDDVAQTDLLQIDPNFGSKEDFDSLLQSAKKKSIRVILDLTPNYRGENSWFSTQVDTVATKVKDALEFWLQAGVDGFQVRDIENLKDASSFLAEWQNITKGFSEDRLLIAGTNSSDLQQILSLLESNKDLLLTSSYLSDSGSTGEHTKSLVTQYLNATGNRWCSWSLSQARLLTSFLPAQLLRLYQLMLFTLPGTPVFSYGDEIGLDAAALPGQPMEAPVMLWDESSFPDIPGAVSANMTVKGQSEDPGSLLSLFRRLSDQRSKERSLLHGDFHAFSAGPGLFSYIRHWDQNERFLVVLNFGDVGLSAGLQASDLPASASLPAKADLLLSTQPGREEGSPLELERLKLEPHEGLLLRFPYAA
- Test: LAT1 uptake inhibition assay: [3H]-gabapentin competition uptake in LN229 cells
- Format: cell-based
- Condition set: [3H]-gabapentin uptake, 15 min incubation in PBS, read-out: IC50, the concentration of test compound at which the [3H]-GP uptake was inhibited by 50%
Observed property: IC50

Request - read-out IC50 | tested on LAT1 (Homo sapiens (Human), UniProt Q01650) | molecule CC(C)c1ccc(S(=O)(=O)Nc2ccc(Cl)cc2)cc1C[C@H](N)C(=O)O [Compound 86]
≤ 20 nM

Lookup: IC50 / LAT1 (Homo sapiens (Human), UniProt Q01650) / CCCCS(=O)(=O)Nc1ccc(C)c(C[C@H](N)C(=O)O)c1 [Compound 58]
100 to 1000 nM

Recall the recorded IC50 for Cc1ccc(S(=O)(=O)N(C)c2ccc(Cl)cc2)cc1C[C@H](N)C(=O)O [Compound 84] with LAT1 (Homo sapiens (Human), UniProt Q01650) and state it.
20 to 100 nM

Identify the measured IC50 of N[C@@H](Cc1cccc(S(N)(=O)=O)c1)C(=O)O [Compound 71] for LAT1 (Homo sapiens (Human), UniProt Q01650).
≥ 10000 nM

API: value(readout=IC50, system=LAT1 (Homo sapiens (Human), UniProt Q01650)) for record Cc1ccc(N(C)S(=O)(=O)c2cccc3c(N(C)C)cccc23)cc1C[C@H](N)C(=O)O [Compound 16]
100 to 1000 nM

Test system LAT1 (Homo sapiens (Human), UniProt Q01650); read-out IC50; what value for Cc1ccc(CS(=O)(=O)Cc2ccccc2)cc1C[C@H](N)C(=O)O [Compound 56] ?
100 to 1000 nM

Requested read-out IC50, target or system LAT1 (Homo sapiens (Human), UniProt Q01650), entry Cc1ccc(S(=O)(=O)Nc2cccc(S(=O)(=O)Nc3ccc(C)c(C[C@H](N)C(=O)O)c3)c2)cc1 [Compound 32]
100 to 1000 nM

Lab note: need IC50 for Cc1ccc(S(=O)(=O)NCC(C)C)cc1C[C@H](N)C(=O)O [Compound 46] on LAT1 (Homo sapiens (Human), UniProt Q01650), anyone have it?
100 to 1000 nM

Give LAT1 (Homo sapiens (Human), UniProt Q01650) IC50 for CC(=O)Nc1ccc(S(=O)(=O)Nc2ccc(C)c(C[C@H](N)C(=O)O)c2)c2ccccc12 [Compound 13]
1000 to 10000 nM

Item N[C@@H](Cc1ccccc1S(=O)(=O)Nc1ccc(Cl)cc1)C(=O)O [Compound 81] with LAT1 (Homo sapiens (Human), UniProt Q01650) - IC50?
1000 to 10000 nM

Item: Cc1ccc(NS(=O)(=O)C2CC2)cc1C[C@H](N)C(=O)O [Compound 14] Test system: LAT1 (Homo sapiens (Human), UniProt Q01650) Read-out: IC50 Value: ?
1000 to 10000 nM

Value wanted: IC50 (LAT1 (Homo sapiens (Human), UniProt Q01650)) of entry Cc1ccc(NS(=O)(=O)c2cccc(-c3ccccc3)c2)cc1C[C@H](N)C(=O)O [Compound 38]
20 to 100 nM

Write down the reported IC50 of Cc1ccc(S(=O)(=O)NCc2ccccc2)cc1C[C@H](N)C(=O)O [Compound 30] , test system: LAT1 (Homo sapiens (Human), UniProt Q01650).
≤ 20 nM

Recall the recorded IC50 for N[C@@H](Cc1cccc(NS(=O)(=O)c2ccccc2)c1)C(=O)O [Compound 37] with LAT1 (Homo sapiens (Human), UniProt Q01650) and state it.
100 to 1000 nM

Lab note: need IC50 with LAT1 (Homo sapiens (Human), UniProt Q01650) for entry Cc1ccc(S(=O)(=O)Nc2ccc(C)c(C[C@H](N)C(=O)O)c2)cc1 [Compound 7] , please look it up.
100 to 1000 nM

# value lookup — system LAT1 (Homo sapiens (Human), UniProt Q01650), readout IC50, item CC(C)c1ccc(NS(=O)(=O)c2cccc3c(N(C)C)cccc23)cc1C[C@H](N)C(=O)O [Compound 21]
20 to 100 nM

Param readout = IC50; param system = LAT1 (Homo sapiens (Human), UniProt Q01650); param query = N[C@@H](Cc1cc(NS(=O)(=O)c2ccccc2)cc(NS(=O)(=O)c2ccccc2)c1)C(=O)O [Compound 62] ; response: value
≥ 10000 nM

----------
- Target under test: LAT1 (Homo sapiens (Human), UniProt Q01650)
- Test: LAT1 uptake inhibition assay: [3H]-gabapentin competition uptake in LN229 cells
- Format: cell-based
- Condition set: [3H]-gabapentin uptake, 15 min incubation in PBS, read-out: IC50, the concentration of test compound at which the [3H]-GP uptake was inhibited by 50%
pIC50: −log10 of the molar value.
Observed property: pIC50

Request the reported pIC50 associated with Cc1ccc(S(=O)(=O)Nc2ccc(Cl)cc2)cc1C[C@H](N)C(=O)OC(C)(C)C
7.00 to 7.70

Given Cc1ccc(S(=O)(=O)Nc2cccc3c(N(C)C)cccc23)cc1C[C@H](N)C(=O)O , state its recorded pIC50.
7.00 to 7.70

# input molecule: Cc1ccc(NS(=O)(=O)c2cccc(Br)c2)cc1C[C@H](N)C(=O)O ; wanted: its pIC50
7.00 to 7.70

# pIC50 lookup, item Cc1ccc(CNS(=O)(=O)Cc2ccccc2)cc1C[C@H](N)C(=O)O
5.00 to 6.00

Please give the measured pIC50 for this molecule: Cc1ccc(SCc2ccccc2)cc1C[C@H](N)C(=O)O
6.00 to 7.00

What pIC50 value was documented for this molecule, Cc1cc(S(=O)(=O)Nc2ccc(Cl)cc2)ccc1C[C@H](N)C(=O)O ?
6.00 to 7.00

What does the data say about its pIC50? Entry: Cc1ccc(NS(=O)(=O)c2cccnc2)cc1C[C@H](N)C(=O)O
5.00 to 6.00

Would you kindly share the measured pIC50 for Cc1ccc(NS(=O)(=O)c2ccc(Cl)c3nonc23)cc1C[C@H](N)C(=O)O ?
5.00 to 6.00

----------
- Target under test: LAT1 (Homo sapiens (Human), UniProt Q01650)
- Test: LAT1 uptake inhibition assay: [3H]-gabapentin competition uptake in LN229 cells
- Assay type: cell-based
- Condition set: [3H]-gabapentin uptake, 15 min incubation in PBS, read-out: IC50, the concentration of test compound at which the [3H]-GP uptake was inhibited by 50%
pIC50: −log10 of the molar value.
Exercise: for every item that follows, state its recorded pIC50.

Suppose we examine the molecule Cc1ccc(S(=O)(=O)Nc2ccc(Cl)cc2)cc1C[C@@H](N)C(=O)O ; what pIC50 value has been reported?
≤ 5.00

What does the record list as pIC50 for CN(C)c1cccc2c(S(=O)(=O)Nc3cccc(C[C@H](N)C(=O)O)c3)cccc12 ?
6.00 to 7.00

Sample Cc1ccc(NS(=O)(=O)c2csc3ccccc23)cc1C[C@H](N)C(=O)O — what was its pIC50?
6.00 to 7.00

Data request, read-out pIC50, for CN(C)c1cccc2c(S(=O)(=O)Nc3ccccc3C[C@H](N)C(=O)O)cccc12
6.00 to 7.00

Report pIC50 for COc1ccc(S(=O)(=O)Nc2ccc(C)c(C[C@H](N)C(=O)O)c2)cc1 please.
6.00 to 7.00

Which pIC50 value belongs to Cc1ccc(NS(=O)(=O)c2c(Cl)cccc2Cl)cc1C[C@H](N)C(=O)O ?
6.00 to 7.00

Look at this molecule and give its reported pIC50. Cc1ccc(C[S+]([O-])Cc2ccccc2)cc1C[C@H](N)C(=O)O (some centres unmarked)
6.00 to 7.00

Find the recorded pIC50 belonging to Cc1ccc(NS(=O)(=O)c2ccc(-c3ccccc3)cc2)cc1C[C@H](N)C(=O)O and report it.
6.00 to 7.00

Need pIC50 of CC(C)c1ccc(NS(=O)(=O)c2cccc3c(N(C)C)cccc23)cc1C[C@@H](N)C(=O)O , thanks.
5.00 to 6.00

Which measured pIC50 value corresponds to Cc1ccc(NS(=O)(=O)C2CCCCC2)cc1C[C@H](N)C(=O)O ?
6.00 to 7.00

Please give the measured pIC50 for this molecule: Cc1ccc(S(=O)(=O)Nc2ccc(Br)cc2)cc1C[C@H](N)C(=O)O
≥ 7.70

Fill in: pIC50 of Cc1ccc(NS(=O)(=O)c2cccc(N)c2)cc1C[C@H](N)C(=O)O is ___
6.00 to 7.00

# lookup: pIC50 of Cc1ccc(NS(=O)(=O)c2cc(Cl)cc(Cl)c2)cc1C[C@H](N)C(=O)O
6.00 to 7.00

Return reported pIC50; argument: Cc1ccc(NS(=O)(=O)c2cccc3ccccc23)cc1C[C@H](N)C(=O)O
6.00 to 7.00

// pIC50 lookup, key: Cc1ccc([S+]([O-])Cc2ccccc2)cc1C[C@H](N)C(=O)O (some centres unmarked)
5.00 to 6.00

Recorded pIC50 for Cc1ccc(NS(=O)(=O)C[C@@]23CC[C@H](CC2=O)C3(C)C)cc1C[C@H](N)C(=O)O , please?
5.00 to 6.00

Any idea what pIC50 was measured for Cc1ccc(S(=O)(=O)Nc2cccc(Br)c2)cc1C[C@H](N)C(=O)O ?
≥ 7.70
